Assayed Target: T1, His-tagged CD73 extracellular domain protein (hCD73 ECD-His) (human, UniProt P21589 27-547)
T1 construct: Expressed in CHO cells from pTT5-hCD73 ECD-His6, purified on nickel column; also called hCD73 ECD-His6; human CD73 ECD
T1 sequence: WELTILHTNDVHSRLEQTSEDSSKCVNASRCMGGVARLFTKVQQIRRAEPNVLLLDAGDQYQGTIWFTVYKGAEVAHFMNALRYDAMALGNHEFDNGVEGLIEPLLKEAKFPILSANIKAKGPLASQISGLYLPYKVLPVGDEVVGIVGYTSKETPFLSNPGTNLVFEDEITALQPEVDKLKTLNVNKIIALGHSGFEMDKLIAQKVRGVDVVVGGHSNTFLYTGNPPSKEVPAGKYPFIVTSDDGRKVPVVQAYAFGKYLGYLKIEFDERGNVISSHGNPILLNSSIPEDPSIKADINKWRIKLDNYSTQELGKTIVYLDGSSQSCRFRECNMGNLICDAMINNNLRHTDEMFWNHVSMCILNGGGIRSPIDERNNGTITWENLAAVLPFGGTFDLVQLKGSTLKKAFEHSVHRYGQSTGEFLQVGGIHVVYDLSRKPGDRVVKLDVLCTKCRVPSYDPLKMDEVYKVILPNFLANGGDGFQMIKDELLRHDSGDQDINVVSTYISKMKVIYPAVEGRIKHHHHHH
Assay: Octet BLI, antibody on AHC sensor, antigen 50-200 nM, 1:1 fit
From the text: Octet Red 96 was selected as the test instrument, and AHC biosensor was selected as the test sensor in this experiment. Anti-human IgG Fc antibody has been immobilized on the AHC sensor, which can be used to directly capture the 15 antibodies in this experiment. Then the sensor was immersed in the analysis sample (antigen). […]
Metric: koff (s⁻¹)
Numeric answer only, unit s⁻¹ assumed.

mab030xhIgG1TM (clone 42A5A7), mouse-human chimeric anti-CD73 antibody (antibody, V domains shown, also called mAb030 chimeric antibody) VH: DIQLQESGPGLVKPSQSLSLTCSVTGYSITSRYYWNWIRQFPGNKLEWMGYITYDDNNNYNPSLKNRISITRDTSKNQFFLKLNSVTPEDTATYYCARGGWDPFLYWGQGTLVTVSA VL: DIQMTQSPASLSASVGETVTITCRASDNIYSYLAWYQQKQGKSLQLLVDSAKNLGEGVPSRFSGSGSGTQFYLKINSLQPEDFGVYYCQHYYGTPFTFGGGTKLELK
1.16e-05
mab065xhIgG1TM (clone 125A4E10), mouse-human chimeric anti-CD73 antibody (antibody, V domains shown, also called mAb065 chimeric antibody) VH: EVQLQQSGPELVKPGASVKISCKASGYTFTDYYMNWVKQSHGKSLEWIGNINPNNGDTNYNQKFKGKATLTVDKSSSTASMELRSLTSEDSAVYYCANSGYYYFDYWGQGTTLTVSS VL: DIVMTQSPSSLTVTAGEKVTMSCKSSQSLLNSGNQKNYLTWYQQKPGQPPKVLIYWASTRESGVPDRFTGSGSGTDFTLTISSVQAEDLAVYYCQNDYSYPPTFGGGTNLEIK
4.86e-05

We next turn to a different binder, shown below.
[in] Which koff is listed for mab034xhIgG1TM (clone 60G1C8), mouse-human chimeric anti-CD73 antibody (antibody, V domains shown, also called mAb034 chimeric antibody) VH: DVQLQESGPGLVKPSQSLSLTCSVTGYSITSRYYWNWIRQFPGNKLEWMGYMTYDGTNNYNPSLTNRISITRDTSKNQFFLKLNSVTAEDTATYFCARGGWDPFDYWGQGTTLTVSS VL: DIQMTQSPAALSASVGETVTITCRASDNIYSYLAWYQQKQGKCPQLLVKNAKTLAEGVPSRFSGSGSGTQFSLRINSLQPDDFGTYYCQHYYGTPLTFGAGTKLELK ?
[out] 2.36e-05

These entries and their values trace back to patent US20220098319A1.
